TARGET: C5a receptor (Homo sapiens)
EXPERIMENT: Anaphylatoxin (C5a) receptor binding Ki determination, 125I-C5a on PMNL membrane fragments
RUN CONDITIONS: read-out: Ki (In vitro C5a Receptor Binding Potency)
pKi: −log10 of the molar value. Where a SMILES comes first, the peptide text is derived from it. [ ]: non-standard residue; d: D form. hhPhe = N[C@@H](CCCc1ccccc1)C(=O)O; Cha = N[C@@H](CC1CCCCC1)C(=O)O
# binarize pKi: threshold 6 inclusive, high side class 1, low side class 0

>>> class("CC(C)C[C@H](NC(=O)CN(C)C(=O)[C@H](CC1CCCCC1)NC(=O)CCCCCCN)C(=O)NC(CCCc1ccccc1)C(=O)N[C@@H](CCCNC(=N)N)C(=O)O (single isomer, unassigned) [Example 60]")
"class 0"
>>> class("N=C(N)NCCC[C@H](NC(=O)C(CCCc1ccccc1)NC(=O)CN(Cc1ccccc1)C(=O)[C@H](CCCCN)NC(=O)[C@@H](N)Cc1ccccc1)C(=O)O (single isomer, unassigned) [Example 94]")
"class 0"

Asked: Decide: is the reported value of pKi for CC(C)C[C@H](NC(=O)[C@H](C)NC(=O)[C@H](CC1CCCCC1)NC(=O)[C@@H]1CCCN1C(=O)[C@H](CCCCN)NC(=O)[C@@H](N)Cc1ccccc1)C(=O)N[C@@H](CCCc1ccccc1)C(=O)N[C@@H](CCCNC(=N)N)C(=O)O [Example 3] (H-FKP[Cha]AL[hhPhe]R-OH) equal to or greater than 6?
Given back: class 1

Asked: Decide: is the reported value of pKi for CC(C)C[C@H](NC(=O)CNC(=O)[C@H](CC1CCCCC1)NC(=O)CCCCCN)C(=O)NC(CCCc1ccccc1)C(=O)N[C@@H](CCCNC(=N)N)C(=O)O (single isomer, unassigned) [Example 70] equal to or greater than 6?
Given back: class 0

----------
TARGET: C5a receptor (Homo sapiens, UniProt P21730)
Construct: from tissue; host or cells: polymorphonuclear leukocyte (PMNL) membrane fragments
EXPERIMENT: Anaphylatoxin (C5a) receptor binding Ki determination, 125I-C5a on PMNL membrane fragments
RUN CONDITIONS: read-out: Ki (In vitro C5a Receptor Binding Potency)
*1 amine or outer side, *2 acyl side, *3 side chain or, on linkers, in order; H or OH if unused. Where a SMILES comes first, the peptide text is derived from it. [ ]: non-standard residue; d: D form. The star is where a group is joined. X11 = O=C([C@H](CC1CCCCC1)N(CCCc1ccccc1)[*:1])[*:2]; d(hhPhe) = N[C@H](CCCc1ccccc1)C(=O)O; X6 = O=C(c1cc2ccccc2[nH]1)*
Item-by-item account of Ki
Write down the numeric answer in nM and omit the unit.

>>> reading("CC(C)C[C@H](NC(=O)CNC(=O)c1cc2ccccc2[nH]1)C(=O)N[C@H](CCCc1ccccc1)C(=O)N[C@@H](CCCNC(=N)N)C(=O)O [Example 131] (X6-GL[d(hhPhe)]R-OH)")
560
>>> reading("CC(C)C[C@H](NC(=O)[C@H](C)NC(=O)[C@H](CC1CCCCC1)NC(=O)[C@@H]1CCCN1C(=O)[C@@H](N)CCCCN)C(=O)NC(CCCc1ccccc1)C(=O)N[C@@H](CCCNC(=N)N)C(=O)O (single isomer, unassigned) [Example 69]")
140

Asked: # return recorded Ki for entry CC(=O)N[C@@H](CC1CCCCC1)C(=O)NCC(=O)N[C@@H](CC(C)C)C(=O)NC(CCCc1ccccc1)C(=O)N[C@@H](CCCNC(=N)N)C(=O)O (single isomer, unassigned) [Example 45]
Given back: 7580

Asked: # return recorded Ki for entry CC(C)C[C@H](NC(=O)CNC(=O)[C@H](CC1CCCCC1)NCCCc1ccccc1)C(=O)N[C@H](CCCc1ccccc1)C(=O)N[C@@H](CCCNC(=N)N)C(=O)O [Example 77] (H-[X11]GL[d(hhPhe)]R-OH)
Given back: 50

Asked: # return recorded Ki for entry CC(C)C[C@H](NC(=O)CNC(=O)[C@H](CC1CCCCC1)NC(=O)CCCCCCN)C(=O)N(C)C(CCCc1ccccc1)C(=O)N[C@@H](CCCNC(=N)N)C(=O)O (mixture of isomers) [Example 28]
Given back: 1720

----------
TARGET: C5a receptor (Homo sapiens)
Construct: from tissue; host or cells: polymorphonuclear leukocyte (PMNL) membrane fragments
EXPERIMENT: Anaphylatoxin (C5a) receptor binding Ki determination, 125I-C5a on PMNL membrane fragments
RUN CONDITIONS: read-out: Ki (In vitro C5a Receptor Binding Potency)
pKi: −log10 of the molar value. Where a SMILES comes first, the peptide text is derived from it. [ ]: non-standard residue; d: D form. The star is where a group is joined. d(hhPhe) = N[C@H](CCCc1ccccc1)C(=O)O; hPhe = N[C@@H](CCc1ccccc1)C(=O)O; Bn = c1ccc(C*)cc1
# binarize pKi: threshold 6 inclusive, high side t, low side f

# count of solved cases: 3
>>> class("CC(C)C[C@H](NC(=O)CNC(=O)[C@@H](N)CCc1ccccc1)C(=O)N[C@H](CCCc1ccccc1)C(=O)N[C@@H](CCCNC(=N)N)C(=O)O [Example 117] (H-[hPhe]GL[d(hhPhe)]R-OH)")
"t"
>>> class("CC(C)C[C@H](NC(=O)CNC(=O)[C@@H](N)CSCc1ccccc1)C(=O)N[C@H](CCCc1ccccc1)C(=O)N[C@@H](CCCNC(=N)N)C(=O)O [Example 90] (H-C(Bn)GL[d(hhPhe)]R-OH)")
"t"
>>> class("CC(C)C[C@H](NC(=O)[C@@H](CCCCN)NC(=O)[C@@H](N)CC1CCCCC1)C(=O)NC(CCCc1ccccc1)C(=O)N[C@@H](CCCNC(=N)N)C(=O)O (mixture of isomers) [Example 98]")
"f"

Now consider the entry below.
Asked: Decide: is the reported value of pKi for CC(C)C[C@H](NC(=O)CNC(=O)C(N)CCCc1ccccc1)C(=O)N[C@H](CCCc1ccccc1)C(=O)N[C@@H](CCCNC(=N)N)C(=O)O (single isomer, unassigned) [Example 105] equal to or greater than 6?
Given back: t

----------
TARGET: C5a receptor (Homo sapiens, UniProt P21730)
Construct: from tissue; host or cells: polymorphonuclear leukocyte (PMNL) membrane fragments
Sequence (P21730 1-350): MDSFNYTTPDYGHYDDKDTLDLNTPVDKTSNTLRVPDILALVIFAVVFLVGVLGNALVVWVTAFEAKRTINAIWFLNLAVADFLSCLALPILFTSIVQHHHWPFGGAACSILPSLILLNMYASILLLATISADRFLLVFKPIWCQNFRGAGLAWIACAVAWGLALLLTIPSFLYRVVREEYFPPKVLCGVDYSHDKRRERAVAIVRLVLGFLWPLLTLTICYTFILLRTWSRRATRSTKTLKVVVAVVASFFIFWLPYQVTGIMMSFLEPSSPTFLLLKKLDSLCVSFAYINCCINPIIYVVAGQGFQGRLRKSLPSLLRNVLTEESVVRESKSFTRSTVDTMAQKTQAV
EXPERIMENT: Anaphylatoxin (C5a) receptor binding Ki determination, 125I-C5a on PMNL membrane fragments
RUN CONDITIONS: read-out: Ki (In vitro C5a Receptor Binding Potency)
Where a SMILES comes first, the peptide text is derived from it. [ ]: non-standard residue; d: D form. The star is where a group is joined. d(hhPhe) = N[C@H](CCCc1ccccc1)C(=O)O; Hydrocinnamoyl = O=C(CCc1ccccc1)*; Cha = N[C@@H](CC1CCCCC1)C(=O)O; X7 = O=C(C(O)CC1CCCCC1)*
EXPERIMENTAL ENDPOINT: log10 Ki (log10 of the value in µM)
Use the decimal logarithm of Ki (µM).

>>> reading("CC(C)C[C@H](NC(=O)CNC(=O)C(O)CC1CCCCC1)C(=O)N[C@H](CCCc1ccccc1)C(=O)N[C@@H](CCCNC(=N)N)C(=O)O (some centres unmarked) [Example 132] (X7-GL[d(hhPhe)]R-OH)")
-0.38

Asked: State log10 Ki (C5a receptor (Homo sapiens, UniProt P21730)) of CC(C)C[C@H](NC(=O)CNC(=O)[C@H](CC1CCCCC1)NC(=O)CCc1ccccc1)C(=O)N[C@H](CCCc1ccccc1)C(=O)N[C@@H](CCCNC(=N)N)C(=O)O [Example 49] (Hydrocinnamoyl-[Cha]GL[d(hhPhe)]R-OH) .
Given back: -0.14

Asked: State log10 Ki (C5a receptor (Homo sapiens, UniProt P21730)) of CC(C)C[C@H](NC(=O)CCNC(=O)[C@H](CC1CCCCC1)NC(=O)CCCCCN)C(=O)NC(CCCc1ccccc1)C(=O)N[C@@H](CCCNC(=N)N)C(=O)O (single isomer, unassigned) [Example 114] .
Given back: 1.27

Asked: State log10 Ki (C5a receptor (Homo sapiens, UniProt P21730)) of CC(C)C[C@H](NC(=O)CNC(=O)[C@H](CCC1CCCCC1)NC(=O)CCCCCN)C(=O)NC(CCCc1ccccc1)C(=O)N[C@@H](CCCNC(=N)N)C(=O)O (single isomer, unassigned) [Example 137] .
Given back: 0.62

Asked: State log10 Ki (C5a receptor (Homo sapiens, UniProt P21730)) of N=C(N)NCCC[C@H](NC(=O)C(CCCc1ccccc1)NC(=O)CN(Cc1ccccc1)C(=O)[C@H](CCCCN)NC(=O)[C@@H](N)Cc1ccccc1)C(=O)O (single isomer, unassigned) [Example 95] .
Given back: 1.53
